Values from paper PMC10657444

Assay: MTT cytotoxicity assay
Format: cell-based, human
Details: human, HEK293T cells, OD450, cytotoxicity (Fig 2a), replicates
Non-standard residues stand in square brackets, D forms with d. Residues, ends and D or L forms follow the SMILES beside them.
Below, each of the compounds is paired with its reported viability at 72 h, 1.57 µM value.

{"Compound": "CC[C@H](C)[C@H](NC(=O)[C@H](CCCNC(=N)N)NC(=O)[C@H](CCCNC(=N)N)NC(=O)[C@H](CC(C)C)NC(=O)[C@@H](N)Cc1ccccc1)C(=O)N[C@@H](Cc1ccccc1)C(=O)N[C@@H](Cc1ccccc1)C(=O)N[C@@H](Cc1ccccc1)C(=O)N[C@@H](Cc1ccccc1)C(N)=O [HT1] (H-FLRRIFFFF-NH2)", "viability at 72 h, 1.57 µM (%)": 78}
{"Compound": "CC[C@@H](C)[C@@H](NC(=O)[C@@H](Cc1ccccc1)NC(=O)[C@@H](Cc1ccccc1)NC(=O)[C@@H](Cc1ccccc1)NC(=O)[C@H](N)Cc1ccccc1)C(=O)N[C@H](CCCNC(=N)N)C(=O)N[C@H](CCCNC(=N)N)C(=O)N[C@H](CC(C)C)C(=O)N[C@H](Cc1ccccc1)C(=O)N[C@H](CCCNC(=N)N)C(N)=O [RI-HT2] (H-[dF][dF][dF][dF][dI][dR][dR][dL][dF][dR]-NH2; N-terminus assumed)", "viability at 72 h, 1.57 µM (%)": 92.8}
{"Compound": "CC[C@H](C)[C@H](NC(=O)[C@H](CCCNC(=N)N)NC(=O)[C@H](CCCNC(=N)N)NC(=O)[C@H](CC(C)C)NC(=O)[C@H](Cc1ccccc1)NC(=O)[C@@H](N)CCCNC(=N)N)C(=O)N[C@@H](Cc1ccccc1)C(=O)N[C@@H](CCCNC(=N)N)C(=O)N[C@@H](Cc1ccccc1)C(=O)N[C@@H](Cc1ccccc1)C(=O)N[C@@H](Cc1ccccc1)C(N)=O [HT4] (H-RFLRRIFRFFF-NH2)", "viability at 72 h, 1.57 µM (%)": 70.9}

###

Below, each of the compounds is paired with its reported MIC Gram+ MRSA ATCC 43300 value.
Test system: MRSA ATCC 43300
Format: cell-based, Staphylococcus aureus
Conditions: ATCC 43300
Residues, ends and D or L forms follow the SMILES beside them.
Metric: MIC Gram+ MRSA ATCC 43300 (µM)

{"Compound": "CC[C@H](C)[C@H](NC(=O)[C@H](CCCNC(=N)N)NC(=O)[C@H](CCCNC(=N)N)NC(=O)[C@H](CC(C)C)NC(=O)[C@H](Cc1ccccc1)NC(=O)[C@@H](N)CCCNC(=N)N)C(=O)N[C@@H](Cc1ccccc1)C(=O)N[C@@H](Cc1ccccc1)C(=O)N[C@@H](Cc1ccccc1)C(=O)N[C@@H](Cc1ccccc1)C(N)=O [HT2] (H-RFLRRIFFFF-NH2)", "Endpoint result": 1.57}
{"Compound": "CC[C@H](C)[C@H](NC(=O)[C@H](CCCNC(=N)N)NC(=O)[C@H](CCCNC(=N)N)NC(=O)[C@H](CC(C)C)NC(=O)[C@H](Cc1ccccc1)NC(=O)[C@@H](N)CCCNC(=N)N)C(=O)N[C@@H](Cc1ccccc1)C(=O)N[C@@H](CCCNC(=N)N)C(=O)N[C@@H](Cc1ccccc1)C(=O)N[C@@H](Cc1ccccc1)C(=O)N[C@@H](Cc1ccccc1)C(N)=O [HT4] (H-RFLRRIFRFFF-NH2)", "Endpoint result": 3.13}
{"Compound": "CC[C@H](C)[C@H](NC(=O)[C@H](CCCNC(=N)N)NC(=O)[C@H](CCCNC(=N)N)NC(=O)[C@H](CC(C)C)NC(=O)[C@H](Cc1ccccc1)NC(=O)[C@H](CCCNC(=N)N)NC(=O)[C@@H](N)CCCNC(=N)N)C(=O)N[C@@H](Cc1ccccc1)C(=O)N[C@@H](Cc1ccccc1)C(=O)N[C@@H](Cc1ccccc1)C(=O)N[C@@H](Cc1ccccc1)C(N)=O [HT3] (H-RRFLRRIFFFF-NH2; N-terminus assumed)", "Endpoint result": 1.57}
